- method-description: Pharmacokinetic assay in Balb/c mice (plasma and brain tissue)
- Type: in vivo
- test-conditions: male, Balb/c, mouse, in vivo, po, 5 mg/kg
Could you mark each record T if its Half-life t1/2 falls strictly under 2 h, and F if it equals or exceeds it?

- compound: "C[C@@]1(O)CC[C@@]2(F)[C@H](CC[C@H]3[C@@H]4CC[C@H](C(=O)CNc5ccc(F)cc5)[C@@]4(C)CC[C@@H]32)C1 [Example 23]"
  class-name: "T"
- compound: "C[C@@]1(O)CC[C@@]2(F)[C@H](CC[C@H]3[C@@H]4CC[C@H](C(=O)COc5cnc(C(F)(F)F)nc5)[C@@]4(C)CC[C@@H]32)C1 [Example 66]"
  class-name: "F"
- compound: "Cc1nn(CC(=O)[C@H]2CC[C@H]3[C@@H]4CC[C@@H]5C[C@](C)(O)CC[C@]5(F)[C@H]4CC[C@]23C)cc1C#N [Example 38]"
  class-name: "T"
- compound: "C[C@@]1(O)CC[C@]2(F)C3CC[C@]4(C)[C@@H](C(=O)Cn5cc(C#N)c(Cl)n5)CC[C@H]4[C@@H]3CC[C@@H]2C1 (stereo partly drawn) [Example 51]"
  class-name: "F"
- compound: "C[C@@]1(O)CC[C@]2(F)C3CC[C@]4(C)[C@@H](C(=O)CNc5ccc(F)cc5F)CC[C@H]4[C@@H]3CC[C@@H]2C1 (stereo partly drawn) [Example 26]"
  class-name: "F"
- compound: "C[C@@]1(O)CC[C@@]2(F)[C@H](CC[C@H]3[C@@H]4CC[C@H](C(=O)Cn5nc(C#N)cc5C#N)[C@@]4(C)CC[C@@H]32)C1 [Example 50]"
  class-name: "T"
- compound: "C[C@@]1(O)CC[C@@]2(F)[C@H](CC[C@H]3[C@@H]4CC[C@H](C(=O)Cn5ccc(C(F)(F)F)n5)[C@@]4(C)CC[C@@H]32)C1 [Example 5]"
  class-name: "T"
- compound: "C[C@@]1(O)CC[C@@]2(F)[C@H](CC[C@H]3[C@@H]4CC[C@H](C(=O)Cn5cc(C(F)(F)F)cn5)[C@@]4(C)CC[C@@H]32)C1 [Example 7]"
  class-name: "T"
- compound: "C[C@@]1(O)CC[C@@]2(F)[C@H](CC[C@H]3[C@@H]4CC[C@H](C(=O)Cn5nc6ccc(F)cc6n5)[C@@]4(C)CC[C@@H]32)C1 [Example 18]"
  class-name: "F"
